Data origin: patent US20230348424A1

- targetOrSystem: SOS1:KRAS (G12C) interaction (Homo sapiens (Human), UniProt Q07889)
- Sequence (Q07889 564-1049, stated change not applied): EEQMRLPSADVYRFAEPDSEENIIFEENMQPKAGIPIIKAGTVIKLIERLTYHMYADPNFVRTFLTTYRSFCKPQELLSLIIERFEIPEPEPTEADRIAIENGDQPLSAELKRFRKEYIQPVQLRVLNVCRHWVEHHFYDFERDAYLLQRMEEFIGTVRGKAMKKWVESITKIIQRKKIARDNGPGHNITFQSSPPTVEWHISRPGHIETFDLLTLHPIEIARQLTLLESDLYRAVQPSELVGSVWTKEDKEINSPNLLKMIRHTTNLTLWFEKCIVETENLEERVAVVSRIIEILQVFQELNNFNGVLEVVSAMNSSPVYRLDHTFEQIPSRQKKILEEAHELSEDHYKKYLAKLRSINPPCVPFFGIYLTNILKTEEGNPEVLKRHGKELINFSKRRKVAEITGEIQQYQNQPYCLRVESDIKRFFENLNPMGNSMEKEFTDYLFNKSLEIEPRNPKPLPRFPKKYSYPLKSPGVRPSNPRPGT
- assayOverview: SOS1 KRas(G12C) FRET Assay
- assayConditions: 0.5 nM His10-SOS1 (res. 564-1049), 2.5 nM GST-KRAS G12C (res. 1-169), 2 hrs at RT
measurementType: pIC50
Give bare numbers, as −log10 of the molar value.

- compound: "C[C@@H](NC(=O)c1cn([C@H]2[C@H](C)C2(F)F)c(=O)cc1N[C@H]1[C@@H]2CN(C)C[C@@H]21)c1cccc(C(F)F)c1F (single isomer, unassigned) [Example 110]"
  targetOrSystem: "SOS1:KRAS (G12C) interaction (Homo sapiens (Human), UniProt Q07889)"
  pIC50: 7.62

Give one value of pIC50 per listed compound.
1. CCC12CC(n3cc(C(=O)N[C@H](C)c4cccc(C(F)F)c4F)c(NC4[C@H]5CN(C)C[C@@H]45)cc3=O)(C1)C2 (stereo partly drawn) [Example 313]
2. Cc1c([C@@H](C)NC(=O)c2cn(C3CCOCC3)c(=O)cc2NC2CCNC2)cccc1C(F)(F)F (stereo partly drawn) [Example 44]

1: 7.98; 2: 7.46
